Assay: biodistribution in A431-CCK2R/A431-mock xenografted BALB/c nude mice
Type: in vivo
Details: female, athymic BALB/c nude, mouse, muscle, iv, 20 pmol, total radioactivity, 20 pmol, 4 h p.i.; read-out: uptake in muscle
Procedure: Biodistribution studies evaluating the tumor uptake of the radiolabeled peptides were performed in 7- to 9-week-old female athymic BALB/c nude mice (Charles River, Sulzfeld, Germany). […] At 4 and 12 h p.i., the mice were sacrificed and the tumors and other tissues (blood, lung, heart, muscle, spleen, intestine, liver, kidneys, stomach, and pancreas) were removed, weighed, and their radioactivity measured in the γ counter together with the rest of the body. […]
Non-standard residues stand in square brackets, D forms with d. Residues, ends and D or L forms follow the SMILES beside them. *: point of attachment. DOTA = O=C(O)CN1CCN(CC(=O)O)CCN(CC(=O)*)CCN(CC(=O)O)CC1; 1Nal = N[C@@H](Cc1cccc2ccccc12)C(=O)O; NMeNle = CCCC[C@H](NC)C(=O)O
Measured Endpoint: tissue uptake at 4 h (%ID/g)
Number only, in %ID/g; omit the unit.

Example compounds with recorded tissue uptake at 4 h:
{"Compound": "CCCC[C@@H](C(=O)N[C@@H](CC(=O)O)C(=O)N[C@@H](Cc1cccc2ccccc12)C(N)=O)N(C)C(=O)[C@H](Cc1c[nH]c2ccccc12)NC(=O)[C@@H]1CCCN1C(=O)[C@H](Cc1ccc(O)cc1)NC(=O)[C@H](C)NC(=O)[C@@H](CCC(=O)O)NC(=O)CN1CCN(CC(=O)O)CCN(CC(=O)O)CCN(CC(=O)O)CC1 [[^177Lu]Lu-3, metal not drawn] ({DOTA}-[dE]AYPW[NMeNle]D[1Nal]-NH2)", "tissue uptake at 4 h, %ID/g": 0.09}
{"Compound": "CCCC[C@@H](C(=O)N[C@@H](CC(=O)O)C(=O)N[C@@H](Cc1cccc2ccccc12)C(N)=O)N(C)C(=O)[C@H](Cc1c[nH]c2ccccc12)NC(=O)CNC(=O)[C@@H]1CCCN1C(=O)[C@H](Cc1ccc(O)cc1)NC(=O)[C@@H](CCC(=O)O)NC(=O)CN1CCN(CC(=O)O)CCN(CC(=O)O)CCN(CC(=O)O)CC1 [[^177Lu]Lu-2, metal not drawn] ({DOTA}-[dE]YPGW[NMeNle]D[1Nal]-NH2)", "tissue uptake at 4 h, %ID/g": 0.06}

Now for a further compound.
Return reported tissue uptake at 4 h; argument: CCCC[C@@H](C(=O)N[C@@H](CC(=O)O)C(=O)N[C@@H](Cc1cccc2ccccc12)C(N)=O)N(C)C(=O)[C@H](Cc1c[nH]c2ccccc12)NC(=O)CNC(=O)[C@H](Cc1ccc(O)cc1)NC(=O)[C@@H]1CCCN1C(=O)[C@@H](CCC(=O)O)NC(=O)CN1CCN(CC(=O)O)CCN(CC(=O)O)CCN(CC(=O)O)CC1 [[^177Lu]Lu-1, metal not drawn] ({DOTA}-[dE]PYGW[NMeNle]D[1Nal]-NH2)
0.06
